Ref: patent US20250114345A1

System Name: p300 (Homo sapiens)
Construct: host or cells: A549 P300 HiBit cells
Protocol Details: P300 degradation, HiBit technology in A549 P300 HiBit cells (2 h)
Assay type: cell-based
Details: A549 P300 HiBit cells, 2 hrs post treatment
Value Kind: DC50

As a guide, the following entries are already answered.
Molecule	Data Value
CC(C)c1cc(N2CCCc3nc(-c4ccc(C(=O)NCC#Cc5cc6c(C7CCC(=O)NC7=O)cccc6o5)nc4)ncc32)cc2c1n(C)c(=O)n2C (centres unmarked)	< 1 nM
Cn1c(=O)n(C)c2cc(-c3cccc4cc(-c5ccc(C(=O)NCC#Cc6ccc7occ(C8CCC(=O)NC8=O)c7c6)nc5)ncc34)ccc21 (centres unmarked)	1 to 9.9 nM
Cc1cc2c(N3CCCc4nc(-c5ccc(C(=O)NCC#Cc6cc7c(C8CCC(=O)NC8=O)cccc7o6)nc5)ncc43)nc(N3CCOCC3)cc2n(C)c1=O (centres unmarked)	1 to 9.9 nM
Cc1cc2c(N3CCCc4cc(-c5ccc(C(=O)NCC#Cc6ccc7occ(C8CCC(=O)NC8=O)c7c6)nc5)ccc43)cc(C3CCOCC3)cc2n(C)c1=O (centres unmarked)	1 to 9.9 nM

// below: DC50 requested for another molecule
Given the molecule Cc1cc2c(N3CCCc4nc(-c5ccc(C(=O)NCC#Cc6cc7c(C8CCC(=O)NC8=O)nccc7n6C)nc5)ncc43)cc(C3CCOCC3)cc2n(C)c1=O (centres unmarked) , what is its reported DC50? 1 to 9.9 nM

* * *

System Name: p300 (Homo sapiens)
Construct: host or cells: A549 P300 HiBit cells
Protocol Details: P300 degradation, HiBit technology in A549 P300 HiBit cells (2 h)
Assay type: cell-based
Details: A549, A549 P300 HiBit cells, 2 hrs post treatment
Value Kind: Dmax

Molecule	Dmax
CC(C)c1cc(-c2cccc3cc(-c4ccc(C(=O)NCC#Cc5cc6c(C7CCC(=O)NC7=O)coc6cn5)nc4)ncc23)cc2c1n(C)c(=O)n2C (centres unmarked)	60 to 79%

Given the molecule Cc1cc(-c2ncc3c(n2)CCCN3c2cc(C3CCOCC3)nc3c2cc(C)c(=O)n3C)cnc1C(=O)NCC#Cc1cc2c(C3CCC(=O)NC3=O)cccc2o1 (centres unmarked) , what is its reported Dmax? > 80%

Given the molecule Cc1cc(-c2ccc(N(C)c3cc4c(c(C(C)C)n3)n(C)c(=O)n4C)cn2)cnc1C(=O)NCC#Cc1ccc2occ(C3CCC(=O)NC3=O)c2c1 (centres unmarked) , what is its reported Dmax? < 20%

Given the molecule CC(C)c1cc(C2CC(C)(C)Oc3cc(-c4ccc(C(=O)NCC#Cc5ccc6occ(C7CCC(=O)NC7=O)c6c5)nc4)c(F)cc32)cc2c1n(C)c(=O)n2C (centres unmarked) , what is its reported Dmax? > 80%

Given the molecule CC(C)c1cc(-c2cccc3cc(-c4ccc(C(=O)NCC#Cc5cc(C#N)c6occ(C7CCC(=O)NC7=O)c6c5)nc4)ncc23)cc2c1n(C)c(=O)n2C (centres unmarked) , what is its reported Dmax? 40 to 59%

* * *

Entries and their DC50
System Name: p300 (Homo sapiens, UniProt Q09472)
Construct: host or cells: A549 P300 HiBit cells
Sequence (Q09472 whole entry): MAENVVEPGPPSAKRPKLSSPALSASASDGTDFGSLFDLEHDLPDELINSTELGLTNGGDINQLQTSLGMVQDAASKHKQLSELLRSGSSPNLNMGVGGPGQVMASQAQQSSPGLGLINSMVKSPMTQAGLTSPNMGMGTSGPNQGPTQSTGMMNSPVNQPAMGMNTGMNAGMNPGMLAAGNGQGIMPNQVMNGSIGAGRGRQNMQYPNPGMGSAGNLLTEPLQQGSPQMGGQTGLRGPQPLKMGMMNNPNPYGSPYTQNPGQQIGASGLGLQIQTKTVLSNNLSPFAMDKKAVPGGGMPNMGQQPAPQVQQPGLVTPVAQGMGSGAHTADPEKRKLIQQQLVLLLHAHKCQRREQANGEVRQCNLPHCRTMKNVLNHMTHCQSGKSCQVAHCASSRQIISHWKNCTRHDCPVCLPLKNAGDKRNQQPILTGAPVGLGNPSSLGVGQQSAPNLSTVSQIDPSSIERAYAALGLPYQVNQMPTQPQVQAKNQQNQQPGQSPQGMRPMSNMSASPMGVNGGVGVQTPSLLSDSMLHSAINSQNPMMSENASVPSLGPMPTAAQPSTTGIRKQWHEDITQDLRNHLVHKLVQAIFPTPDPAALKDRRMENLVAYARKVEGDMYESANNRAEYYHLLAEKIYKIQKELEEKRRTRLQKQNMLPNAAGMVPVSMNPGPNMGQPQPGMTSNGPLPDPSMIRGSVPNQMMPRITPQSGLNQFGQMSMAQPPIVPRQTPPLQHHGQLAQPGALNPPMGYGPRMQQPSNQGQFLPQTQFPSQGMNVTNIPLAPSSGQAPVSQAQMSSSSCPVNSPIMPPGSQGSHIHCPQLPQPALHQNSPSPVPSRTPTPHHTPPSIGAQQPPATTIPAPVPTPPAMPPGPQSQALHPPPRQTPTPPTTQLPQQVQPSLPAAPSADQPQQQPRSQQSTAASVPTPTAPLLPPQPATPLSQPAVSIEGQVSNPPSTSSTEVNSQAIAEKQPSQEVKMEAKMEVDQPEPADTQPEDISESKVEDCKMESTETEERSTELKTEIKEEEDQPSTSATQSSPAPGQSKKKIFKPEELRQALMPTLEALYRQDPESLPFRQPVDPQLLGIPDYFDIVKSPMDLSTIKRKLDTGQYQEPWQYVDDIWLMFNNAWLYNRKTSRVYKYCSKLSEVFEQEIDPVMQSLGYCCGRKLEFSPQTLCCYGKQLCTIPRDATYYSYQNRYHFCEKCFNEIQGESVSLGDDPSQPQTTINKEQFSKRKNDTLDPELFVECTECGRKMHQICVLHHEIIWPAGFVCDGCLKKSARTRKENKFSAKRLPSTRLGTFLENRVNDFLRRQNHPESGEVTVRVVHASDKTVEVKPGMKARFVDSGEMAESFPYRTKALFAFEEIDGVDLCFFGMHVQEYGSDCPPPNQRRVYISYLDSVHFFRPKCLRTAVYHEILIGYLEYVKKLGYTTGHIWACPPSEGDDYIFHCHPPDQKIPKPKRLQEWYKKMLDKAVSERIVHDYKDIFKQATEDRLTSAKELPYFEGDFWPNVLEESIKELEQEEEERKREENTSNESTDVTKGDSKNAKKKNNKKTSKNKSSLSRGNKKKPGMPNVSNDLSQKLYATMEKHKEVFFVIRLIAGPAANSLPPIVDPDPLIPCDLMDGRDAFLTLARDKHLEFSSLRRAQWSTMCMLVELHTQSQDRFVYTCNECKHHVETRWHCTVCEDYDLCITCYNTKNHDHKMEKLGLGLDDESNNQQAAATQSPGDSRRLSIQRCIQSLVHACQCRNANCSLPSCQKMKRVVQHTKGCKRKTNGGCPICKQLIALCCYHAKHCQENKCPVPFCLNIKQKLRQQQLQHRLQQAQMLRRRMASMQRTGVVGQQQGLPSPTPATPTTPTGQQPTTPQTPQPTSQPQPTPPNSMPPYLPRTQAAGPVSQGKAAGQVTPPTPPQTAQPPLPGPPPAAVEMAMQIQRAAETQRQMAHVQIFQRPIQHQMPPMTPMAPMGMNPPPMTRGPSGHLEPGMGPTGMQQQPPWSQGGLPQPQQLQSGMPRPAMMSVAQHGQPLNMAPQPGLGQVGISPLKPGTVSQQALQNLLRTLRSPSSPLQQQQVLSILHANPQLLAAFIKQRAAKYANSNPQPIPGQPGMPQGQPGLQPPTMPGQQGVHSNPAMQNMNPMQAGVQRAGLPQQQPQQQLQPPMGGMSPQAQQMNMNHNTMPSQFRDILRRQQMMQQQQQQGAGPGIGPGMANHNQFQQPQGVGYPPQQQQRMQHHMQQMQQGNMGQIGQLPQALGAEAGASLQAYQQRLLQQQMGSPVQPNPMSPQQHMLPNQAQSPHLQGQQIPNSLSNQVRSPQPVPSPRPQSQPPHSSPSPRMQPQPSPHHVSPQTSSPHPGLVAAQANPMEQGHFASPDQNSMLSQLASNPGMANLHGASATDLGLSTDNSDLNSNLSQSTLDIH
Protocol Details: P300 degradation, HiBit technology in A549 P300 HiBit cells (2 h)
Format: cell-based
Details: A549 P300 HiBit cells, 2 hrs post treatment

Molecule	DC50
Cc1cc(-c2ncc3c(n2)OCCN3c2cc(C)c3c(c2)n(C)c(=O)n3C)cnc1C(=O)NCC#Cc1ccc2occ(C3CCC(=O)NC3=O)c2c1 (stereo not shown)	> 1000 nM
Cn1c(=O)n(C)c2ncc(-c3cccc4cc(-c5ccc(C(=O)NCC#Cc6cc7c(C8CCC(=O)NC8=O)cccc7o6)nc5)ncc34)cc21 (stereo not shown)	< 1 nM
Cc1cc(-c2cc(F)c(Nc3cc(C4CCOCC4)c4c(c3)n(C)c(=O)n4C)cc2C(F)(F)F)cnc1C(=O)NCC#Cc1cc2c(C3CCC(=O)NC3=O)cccc2o1 (stereo not shown)	10 to 99 nM
Cn1c(=O)n(C)c2cc(N3CCCc4nc(-c5ccc(C(=O)NCC#Cc6ccc7occ(C89CC(C8)C(=O)NC9=O)c7c6)nc5)ncc43)ccc21	10 to 99 nM
Cc1cc2c(N3CCCc4nc(-c5ccc(C(=O)NCC#Cc6ccc7occ(C8CCC(=O)NC8=O)c7c6)nc5)ncc43)nc(N3CCC3)cc2n(C)c1=O (stereo not shown)	1 to 9.9 nM

Given the molecule Cc1cc2c(N3CCCc4nc(-c5ccc(C(=O)NCC#Cc6cc7c(C8CCC(=O)NC8=O)cccc7o6)nc5)ncc43)cc(C3CCC(F)(F)CC3)nc2n(C)c1=O (stereo not shown) , what is its reported DC50? 10 to 99 nM

Given the molecule CC(C)c1cc(-c2cccc3cc(-c4ccc(C(=O)NCC#Cc5cc(C#N)c6occ(C7CCC(=O)NC7=O)c6c5)nc4)ncc23)cc2c1n(C)c(=O)n2C (stereo not shown) , what is its reported DC50? 10 to 99 nM

* * *

System Name: p300 (Homo sapiens, UniProt Q09472)
Construct: host or cells: A549 P300 HiBit cells
Protocol Details: P300 degradation, HiBit technology in A549 P300 HiBit cells (2 h)
Assay type: cell-based
Details: A549, A549 P300 HiBit cells, 2 hrs post treatment
Experimental: p300 and CBP degradation potency and Dmax were determined using in cell western (ICW) assay technology in H1299 cells or HiBit technology in A549 HiBit cells. A549 P300 HiBit and A549 CBP HiBit cells were plated in separate 384-well, TC treated, white-opaque, flat-bottomed microplate. […] After incubation, luminescent signal of each plate was measured using the Envision instrument (Perkin Elmer).
Value Kind: Dmax

Compound	Value Kind	Data Value
Cc1cc(-c2ncc3c(n2)OCCN3c2cc(C)c3c(c2)n(C)c(=O)n3C)cnc1C(=O)NCC#Cc1ccc2occ(C3CCC(=O)NC3=O)c2c1 (stereo not shown)	Dmax	> 80%

Given the compound Cc1cc(-c2ncc(N(C)c3cc(C4CCOCC4)c4c(c3)n(C)c(=O)n4C)cn2)cnc1C(=O)NCC#Cc1cc2c(C3CCC(=O)NC3=O)nccc2o1 (stereo not shown) , what is its reported Dmax? > 80%

Given the compound Cc1cc2c(N3CCCc4nc(-c5ccc(C(=O)NCC#Cc6cc7c([C@H]8CCC(=O)NC8=O)cccc7o6)nc5)ncc43)cc(C3CCOCC3)cc2n(C)c1=O , what is its reported Dmax? > 80%

Given the compound Cc1cc2c(N3CCCc4nc(-c5ccc(C(=O)NCC#Cc6ccc7occ(C8CCC(=O)NC8=O)c7c6)nc5)ncc43)nc(N3CCC(F)CC3)cc2n(C)c1=O (stereo not shown) , what is its reported Dmax? 60 to 79%

Given the compound Cc1cc(-c2ncc(N(C)c3cc4c(c(N5CCOCC5)n3)n(C)c(=O)n4C)cn2)cnc1C(=O)NCC#Cc1ccc2occ(C3CCC(=O)NC3=O)c2c1 (stereo not shown) , what is its reported Dmax? < 20%

Given the compound CC(C)c1cc(-c2cccc3cc(-c4ccc(C(=O)NCC#Cc5cc6c(F)ccc(C7CCC(=O)NC7=O)c6o5)nc4)ncc23)cc2c1n(C)c(=O)n2C (stereo not shown) , what is its reported Dmax? 60 to 79%

Given the compound Cn1c(=O)n(C)c2cc(N3CCCc4nc(-c5ccc(C(=O)NCC#Cc6ccc7occ(C8CCC(=O)NC8=O)c7c6)nc5)ncc43)ccc21 (stereo not shown) , what is its reported Dmax? > 80%

Given the compound Cn1c(=O)n(C)c2c(N3CC(C)(O)C3)nc(-c3cccc4cc(-c5ccc(C(=O)NCC#Cc6ccc7occ(C8CCC(=O)NC8=O)c7c6)nc5)ncc34)cc21 (stereo not shown) , what is its reported Dmax? > 80%

Given the compound CC(C)c1cc(-c2cccc3cc(-c4ccc(C(=O)NCC#Cc5ccc6scc(C7CCC(=O)NC7=O)c6c5)nc4)ncc23)cc2c1n(C)c(=O)n2C (stereo not shown) , what is its reported Dmax? > 80%

Given the compound CCc1cc(-c2cccc3cc(-c4ccc(C(=O)NCC#Cc5cccc(CC6CCC(=O)NC6=O)c5)nc4)ncc23)c2cc(C)c(=O)n(C)c2c1 (stereo not shown) , what is its reported Dmax? 60 to 79%

Given the compound Cn1c(=O)n(C)c2cc(N3CCOc4nc(-c5ccc(C(=O)NCC#Cc6cc7c(C8CCC(=O)NC8=O)cccc7o6)nc5)ncc43)ccc21 (stereo not shown) , what is its reported Dmax? > 80%

Given the compound CC(C)c1cc(-c2cccc3cc(-c4ccc(C(=O)NCC#Cc5cc(OC6CCC(=O)NC6=O)nn5C)nc4)ncc23)cc2c1n(C)c(=O)n2C (stereo not shown) , what is its reported Dmax? > 80%

Given the compound CC(C)c1cc(N2CCCc3nc(-c4ccc(C(=O)NCC#Cc5cc6c(C7CCC(=O)NC7=O)cccc6o5)nc4)ncc32)cc2c1n(C)c(=O)n2C (stereo not shown) , what is its reported Dmax? > 80%

Given the compound COc1nc(-c2cnc(C(=O)NCC#Cc3cc4c(C5CCC(=O)NC5=O)cccc4o3)c(C)c2)ncc1N(C)c1cc(C2CCOCC2)c2c(c1)n(C)c(=O)n2C (stereo not shown) , what is its reported Dmax? 60 to 79%

Given the compound Cc1cc(N2CCN(C)c3nc(-c4ccc(C(=O)NCC#Cc5cc6c(C7CCC(=O)NC7=O)cccc6o5)nc4)ncc32)cc2c1n(C)c(=O)n2C (stereo not shown) , what is its reported Dmax? > 80%

Given the compound Cc1cc2c(N3CCCc4nc(-c5ccc(C(=O)NCC#Cc6ccc7occ(C8CCC(=O)NC8=O)c7c6)nc5)ncc43)cc(C(C)C)cc2n(C)c1=O (stereo not shown) , what is its reported Dmax? > 80%

Given the compound Cc1cc(-c2cc(F)c(Nc3cc(C4CCOCC4)c4c(c3)n(C)c(=O)n4C)cc2C(F)F)cnc1C(=O)NCC#Cc1cc2c(C3CCC(=O)NC3=O)cccc2o1 (stereo not shown) , what is its reported Dmax? 60 to 79%

Given the compound CN1CCN(c2ccc3c(c2)n(C)c(=O)n3C)c2cnc(-c3ccc(C(=O)NCC#Cc4ccc5occ(C6CCC(=O)NC6=O)c5c4)nc3)nc21 (stereo not shown) , what is its reported Dmax? > 80%

Given the compound Cc1cc2c(N3CCCc4nc(-c5ccc(C(=O)NCC#Cc6ccc7occ([C@@H]8CCC(=O)NC8=O)c7c6)nc5)ncc43)nc(N3CCOCC3)cc2n(C)c1=O , what is its reported Dmax? > 80%
